The reported measurements were obtained from ChEMBL document CHEMBL1144889.

Molecular target: Glucocorticoid receptor (Homo sapiens)
Assay: Binding affinity towards human glucocorticoid receptor (GR) was determined using [3H]dexamethasone as radioligand in […] cells
Here, each record is paired with measured pKi data.
Notebook: values listed as pKi are -log10 of the concentration (mol/L).

INSERT INTO results (compound, measurement) VALUES
  ('C=CCC1Oc2ccc(CO)c(OC)c2-c2ccc3c(c21)C(C)=CC(C)(C)N3 (stereo not given)', 8.18),
  ('C=CCC1Oc2cccc(NC)c2-c2ccc3c(c21)C(C)=CC(C)(C)N3 (stereo not given)', 8.15),
  ('C=CCC1Oc2cccc(CO)c2-c2ccc3c(c21)C(C)=CC(C)(C)N3 (stereo not given)', 8.64),
  ('C=CCC1Oc2cccc(CN)c2-c2ccc3c(c21)C(C)=CC(C)(C)N3 (stereo not given)', 6.85);

Q. Find the recorded pKi belonging to C=CCC1Oc2ccc(OCC#N)c(OC)c2-c2ccc3c(c21)C(C)=CC(C)(C)N3 (stereo not given) and report it.
A. 7.29

====

Target: Glucocorticoid receptor (Homo sapiens, UniProt P04150)
Sequence (P04150 whole entry): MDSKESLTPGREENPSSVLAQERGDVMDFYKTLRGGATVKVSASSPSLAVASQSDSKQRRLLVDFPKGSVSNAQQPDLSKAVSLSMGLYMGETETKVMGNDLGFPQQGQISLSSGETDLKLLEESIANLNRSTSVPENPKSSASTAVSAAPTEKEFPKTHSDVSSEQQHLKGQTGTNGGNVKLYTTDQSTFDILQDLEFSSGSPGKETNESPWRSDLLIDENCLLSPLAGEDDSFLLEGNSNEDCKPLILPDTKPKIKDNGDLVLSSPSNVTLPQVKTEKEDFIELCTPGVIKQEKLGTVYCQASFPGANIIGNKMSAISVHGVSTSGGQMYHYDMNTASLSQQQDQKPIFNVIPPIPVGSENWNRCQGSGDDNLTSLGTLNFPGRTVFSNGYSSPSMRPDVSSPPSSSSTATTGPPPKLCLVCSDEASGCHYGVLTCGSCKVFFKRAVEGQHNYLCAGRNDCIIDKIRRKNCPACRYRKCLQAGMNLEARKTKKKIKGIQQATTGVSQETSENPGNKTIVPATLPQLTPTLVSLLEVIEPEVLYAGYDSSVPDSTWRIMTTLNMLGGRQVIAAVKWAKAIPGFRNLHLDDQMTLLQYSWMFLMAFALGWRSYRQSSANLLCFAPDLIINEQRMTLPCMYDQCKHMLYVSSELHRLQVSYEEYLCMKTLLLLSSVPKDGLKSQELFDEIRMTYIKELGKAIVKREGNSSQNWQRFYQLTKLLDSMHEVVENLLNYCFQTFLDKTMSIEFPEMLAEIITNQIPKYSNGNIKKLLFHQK
Test: Transcriptional activation in CV-1 cells expressing human glucocorticoid receptor
Assay type: functional, cell-based
Binary label based on EC50 with cut-off 100 nM: below gives fulfilled, not below gives not fulfilled.

INSERT INTO assay_data (molecule, assigned_class) VALUES
  ('C=CCC1Oc2cccc(C#N)c2-c2ccc3c(c21)C(C)=CC(C)(C)N3 (stereo not given)', 'not fulfilled'),
  ('C=CCC1Oc2cccc(O)c2-c2ccc3c(c21)C(C)=CC(C)(C)N3 (stereo not given)', 'not fulfilled'),
  ('C#CCOc1cccc2c1-c1ccc3c(c1C(CC=C)O2)C(C)=CC(C)(C)N3 (stereo not given)', 'not fulfilled'),
  ('C#Cc1cccc2c1-c1ccc3c(c1C(CC=C)O2)C(C)=CC(C)(C)N3 (stereo not given)', 'not fulfilled'),
  ('C=CCC1Oc2cccc(SC)c2-c2ccc3c(c21)C(C)=CC(C)(C)N3 (stereo not given)', 'not fulfilled');

Q. Identify whether the molecule C=CCC1Oc2cccc(NC)c2-c2ccc3c(c21)C(C)=CC(C)(C)N3 (stereo not given) records EC50 below 100 nM.
A. fulfilled

Q. Moving on to C=CCC1Oc2cccc(OC(F)F)c2-c2ccc3c(c21)C(C)=CC(C)(C)N3 (stereo not given)
A. fulfilled

Q. Moving on to C=CCC1Oc2cccc(C=C)c2-c2ccc3c(c21)C(C)=CC(C)(C)N3 (stereo not given)
A. fulfilled

Q. Moving on to C=CCC1Oc2cccc(CO)c2-c2ccc3c(c21)C(C)=CC(C)(C)N3 (stereo not given)
A. fulfilled

Q. Moving on to C=CCC1Oc2ccccc2-c2ccc3c(c21)C(C)=CC(C)(C)N3 (stereo not given)
A. not fulfilled

====

Molecular target: UniProtKB P04150
Experiment: Transcriptional repression in HepG2 cells expressing human glucocorticoid receptor
Format: functional, cell-based
Here, each record is paired with measured pEC50 data.
Notebook: values listed as pEC50 are -log10 of the concentration (mol/L).

Record excerpt, results attached:
INSERT INTO assay_data (compound, measurement) VALUES
  ('C=CCC1Oc2cccc(OC(F)F)c2-c2ccc3c(c21)C(C)=CC(C)(C)N3 (stereo unspecified)', 7.74),
  ('C=CCC1Oc2cccc(COC)c2-c2ccc3c(c21)C(C)=CC(C)(C)N3 (stereo unspecified)', 6.52),
  ('C#CCOc1ccc2c(c1OC)-c1ccc3c(c1C(CC=C)O2)C(C)=CC(C)(C)N3 (stereo unspecified)', 6.80),
  ('C=CCC1Oc2ccccc2-c2ccc3c(c21)C(C)=CC(C)(C)N3 (stereo unspecified)', 6.46),
  ('C=CCC1Oc2c(C=C)ccc(OC)c2-c2ccc3c(c21)C(C)=CC(C)(C)N3 (stereo unspecified)', 6.81),
  ('C#CCOc1cccc2c1-c1ccc3c(c1C(CC=C)O2)C(C)=CC(C)(C)N3 (stereo unspecified)', 6.57);

Q. Form field: pEC50 recorded for C=CCC1Oc2ccc(CO)c(OC)c2-c2ccc3c(c21)C(C)=CC(C)(C)N3 (stereo unspecified) with UniProtKB P04150 (enter value)
A. 7.28

Q. Moving on to C=CCC1Oc2cccc(Cl)c2-c2ccc3c(c21)C(C)=CC(C)(C)N3 (stereo unspecified)
A. 7.35
